- System: HIV-IIIb IN T174I DE
- Procedure Text: Antiviral assay in MT4 cells, HIV-IIIb IN T174I DE virus (from dose escalation passaging)
- Assay type: cell-based, HIV-1
- Condition Notes: Human immunodeficiency virus 1, IIIB, MT4, 120 h, read-out: T174I DE EC50, MT4 cells, HIV-IIIb IN T174I DE (dose escalation), 5 days, CellTiter-Glo
Measurement Kind: pEC50
For clarity, pEC50 is expressed as the negative log10 of concentration in mol/L.

What the record says about COC1(C)CN(c2nn(C)c3ccc(-c4nc5cc(C)c([C@H](OC(C)(C)C)C(=O)O)c(-c6ccc(Cl)cc6)c5s4)cc23)C1 : pEC50 is 5.43

What the record says about Cc1cc2nc(-c3ccc4c(n3)c(N3CCN(C5CS(=O)(=O)C5)CC3)nn4C)sc2c(-c2ccc(Cl)cc2)c1[C@H](OC(C)(C)C)C(=O)O : pEC50 is 5.34

What the record says about [2H]C([2H])([2H])n1nc(C2CCN(C3COC3)CC2)c2cc(-c3nc4cc(C)c([C@H](OC(C)(C)C)C(=O)O)c(-c5ccc(Cl)cc5)c4s3)ccc21 : pEC50 is 6.29

What the record says about COC(=O)N1CC(N2CCC(c3nn(C)c4ccc(-c5nc6cc(C)c([C@H](OC(C)(C)C)C(=O)O)c(-c7ccc(Cl)cc7)c6s5)cc34)CC2)C1 : pEC50 is 6.66

What the record says about CO[C@H]1CCN(c2nn(C)c3ccc(-c4nc5cc(C)c([C@H](OC(C)(C)C)C(=O)O)c(-c6ccc(Cl)cc6)c5s4)cc23)C1 : pEC50 is 5.24

What the record says about Cc1cc2nc(-c3ccc4c(c3)c(C3CCN(S(C)(=O)=O)CC3)nn4C)sc2c(-c2ccc(Cl)cc2)c1[C@H](OC(C)(C)C)C(=O)O : pEC50 is 6.09
